Experiment: In vitro cytotoxicity by MTT assay, HEK 293
Assay type: cell-based, human
Conditions: human, HEK 293 cells, 0.13 μM, read-out: % cytotoxicity (100 − % cell survival) of HEK 293 cell line
Protocol: The cancer cell line cultures of HEK 293 ([…]), BT474 (breast cancer cell line) and NCI-H226 (lung cancer) were obtained from Pasteur Institute of India, Coonoor, India, and were cultured in RPMI-1640 and 10 % heat-[…] New born calf serum with antibiotics [penicillin ([…]), streptomycin (100 μg/mL) and amphotericin B (25 μg/mL)]. The cells were maintained at 37 °C in a humidified atmosphere with 5 % CO2 and were subcultured twice a week. […]
Decide using cytotoxicity at 72 h, 0.13 µM: a value greater than or equal to 30% is Condition met, a smaller one is Condition not met.

molecule: CN(C)c1ccc(C=Nc2nnc(S(=O)(=O)NC(=O)c3ccccc3)s2)cc1
cat: Condition met
//
molecule: COc1ccc(C=Nc2nnc(S(=O)(=O)NC(=O)c3ccccc3)s2)cc1
cat: Condition met
//
molecule: Nc1nnc(S(=O)(=O)NC(=O)c2ccccc2N)s1
cat: Condition met
//
molecule: CC(=O)Nc1ccc(S(=O)(=O)Nc2nnc(S(=O)(=O)NC(=O)c3ccc(Cl)cc3)s2)cc1
cat: Condition not met
//
molecule: Nc1ccc(S(=O)(=O)Nc2nnc(S(=O)(=O)NC(=O)c3ccccc3O)s2)cc1
cat: Condition not met

Determine whether this molecule has cytotoxicity at 72 h, 0.13 µM no lower than 30%: NS(=O)(=O)c1ccc(S(=O)(=O)Nc2cccc3c(Cl)c[nH]c23)cc1 [ISL, indisulam, reference compound]
Condition met

Entry `O=C(NS(=O)(=O)c1nnc(N=Cc2ccc(Cl)cc2)s1)c1ccccc1` : is its cytotoxicity at 72 h, 0.13 µM no less than 30%?
Condition met

---

experiment: In vitro cytotoxicity by MTT assay, HEK 293; format: cell-based, human; details: human, HEK 293 cells, 1.23 μM, read-out: % cytotoxicity (100 − % cell survival) of HEK 293 cell line
Assignment: determine reported cytotoxicity at 72 h, 1.23 µM for the given compounds.
Give bare numbers, in %.

// below: answered compounds
smiles: COc1ccc(C=Nc2nnc(S(=O)(=O)NC(=O)c3ccccc3)s2)cc1
cytotoxicity at 72 h, 1.23 µM [%]: 35.5

smiles: O=C(NS(=O)(=O)c1nnc(N=Cc2ccccc2)s1)c1ccccc1
cytotoxicity at 72 h, 1.23 µM [%]: 43.1

smiles: Nc1ccc(C(=O)NS(=O)(=O)c2nnc(NS(=O)(=O)c3ccc(N)cc3)s2)cc1
cytotoxicity at 72 h, 1.23 µM [%]: 45.3

smiles: Nc1nnc(S(=O)(=O)NC(=O)c2ccccc2O)s1
cytotoxicity at 72 h, 1.23 µM [%]: 42.4

smiles: COc1ccccc1C=Nc1nnc(S(=O)(=O)NC(=O)c2ccccc2)s1
cytotoxicity at 72 h, 1.23 µM [%]: 43.1

Kindly give each listed record's cytotoxicity at 72 h, 1.23 µM.
1. CC(=O)Nc1ccc(S(=O)(=O)Nc2nnc(S(=O)(=O)NC(=O)c3ccc(Cl)cc3)s2)cc1
2. Nc1nnc(S(=O)(=O)NC(=O)c2ccccc2N)s1
3. COc1cc(C=Nc2nnc(S(=O)(=O)NC(=O)c3ccccc3)s2)ccc1O
4. Nc1nnc(S(=O)(=O)NC(=O)c2ccc([N+](=O)[O-])cc2)s1

[20.8, 58.1, 32.1, 37.1]

---

assay: In vitro cytotoxicity by MTT assay, HEK 293; format: cell-based, human; conditions: human, HEK 293 cells, 0.13 μM, read-out: % cytotoxicity (100 − % cell survival) of HEK 293 cell line
# cutoff 40% applies to cytotoxicity at 72 h, 0.13 µM; >= gives y, < gives n

These recorded examples may help you get a feel for the data.
smiles: Nc1nnc(S(=O)(=O)NC(=O)c2ccccc2)s1
cat: n
//
smiles: Nc1ccc(S(=O)(=O)Nc2nnc(S(=O)(=O)NC(=O)c3cccc([N+](=O)[O-])c3)s2)cc1
cat: n
//
smiles: Nc1ccc(C(=O)NS(=O)(=O)c2nnc(NS(=O)(=O)c3ccc(N)cc3)s2)cc1
cat: y
//
smiles: Nc1nnc(S(=O)(=O)NC(=O)c2cccc([N+](=O)[O-])c2)s1
cat: n
//
smiles: CC(=O)Nc1ccc(S(=O)(=O)Nc2nnc(S(=O)(=O)NC(=O)c3ccc([N+](=O)[O-])cc3)s2)cc1
cat: y

cytotoxicity at 72 h, 0.13 µM >= 40% for `CC(=O)Nc1ccc(S(=O)(=O)Nc2nnc(S(=O)(=O)NC(=O)c3ccc(N)cc3)s2)cc1` ?
n

Has `Nc1ccc(S(=O)(=O)Nc2nnc(S(=O)(=O)NC(=O)c3ccc(Cl)cc3)s2)cc1` a recorded cytotoxicity at 72 h, 0.13 µM greater than or equal to 40%?
n

Decide: is the reported value of cytotoxicity at 72 h, 0.13 µM for `COc1cc(C=Nc2nnc(S(=O)(=O)NC(=O)c3ccccc3)s2)ccc1O` equal to or greater than 40%?
n

Form field: cytotoxicity at 72 h, 0.13 µM at least 40%? Entry: `COc1ccccc1C=Nc1nnc(S(=O)(=O)NC(=O)c2ccccc2)s1`
y

Textbook exercise: given the entry `CC(=O)Nc1ccc(S(=O)(=O)Nc2nnc(S(=O)(=O)NC(=O)c3cccc([N+](=O)[O-])c3)s2)cc1` , state whether its cytotoxicity at 72 h, 0.13 µM is greater than or equal to 40%.
y

Does the molecule `Nc1ccc(S(=O)(=O)Nc2nnc(S(=O)(=O)NC(=O)c3ccccc3)s2)cc1` have recorded cytotoxicity at 72 h, 0.13 µM that is 40% or more?
n

Reported cytotoxicity at 72 h, 0.13 µM at or above 40%? `Nc1nnc(S(=O)(=O)NC(=O)c2ccc([N+](=O)[O-])cc2)s1`
n

---

assay: In vitro cytotoxicity by MTT assay, HEK 293; type: cell-based, human; conditions: human, HEK 293 cells, 33.33 μM, read-out: % cytotoxicity (100 − % cell survival) of HEK 293 cell line
experimental readout: cytotoxicity at 72 h, 33.33 µM (%)
Answers are plain numbers, in %.

The following compounds have reported results that may help.
compound: Nc1nnc(S(=O)(=O)NC(=O)c2ccc(Cl)cc2)s1 [Compound 4g]
experimental readout: cytotoxicity at 72 h, 33.33 µM
unit abbreviation: %
reported: 48.7
//
compound: Nc1nnc(S(=O)(=O)NC(=O)c2ccc([N+](=O)[O-])cc2)s1 [Compound 4e]
experimental readout: cytotoxicity at 72 h, 33.33 µM
unit abbreviation: %
reported: 40
//
compound: CN(C)c1ccc(C=Nc2nnc(S(=O)(=O)NC(=O)c3ccccc3)s2)cc1 [Compound 9h]
experimental readout: cytotoxicity at 72 h, 33.33 µM
unit abbreviation: %
reported: 36.9
//
compound: COc1ccccc1C=Nc1nnc(S(=O)(=O)NC(=O)c2ccccc2)s1 [Compound 9c]
experimental readout: cytotoxicity at 72 h, 33.33 µM
unit abbreviation: %
reported: 47.4

Kindly note the recorded cytotoxicity at 72 h, 33.33 µM for COc1cc(C=Nc2nnc(S(=O)(=O)NC(=O)c3ccccc3)s2)ccc1O [Compound 9g] , which is 34.1

---

experiment: In vitro cytotoxicity by MTT assay, HEK 293; format: cell-based, human; settings: human, HEK 293 cells, 0.13 μM, read-out: % cytotoxicity (100 − % cell survival) of HEK 293 cell line
experimental readout: cytotoxicity at 72 h, 0.13 µM (%)
One number for each entry, in %.

smiles: O=C(NS(=O)(=O)c1nnc(N=Cc2ccccc2O)s1)c1ccccc1
experimental readout: cytotoxicity at 72 h, 0.13 µM
unit abbreviation: %
reported: 35.1
--
smiles: O=C(NS(=O)(=O)c1nnc(N=Cc2ccco2)s1)c1ccccc1
experimental readout: cytotoxicity at 72 h, 0.13 µM
unit abbreviation: %
reported: 34.3
--
smiles: Nc1nnc(S(=O)(=O)NC(=O)c2ccccc2O)s1
experimental readout: cytotoxicity at 72 h, 0.13 µM
unit abbreviation: %
reported: 40.5
--
smiles: Nc1nnc(S(=O)(=O)NC(=O)c2ccc(Cl)cc2)s1
experimental readout: cytotoxicity at 72 h, 0.13 µM
unit abbreviation: %
reported: 43.7

Please go through the list and note cytotoxicity at 72 h, 0.13 µM for each compound.
1. CC(=O)Nc1ccc(S(=O)(=O)Nc2nnc(S(=O)(=O)NC(=O)c3ccccc3O)s2)cc1
2. O=C(NS(=O)(=O)c1nnc(N=Cc2ccc(O)cc2)s1)c1ccccc1
3. Nc1ccc(C(=O)NS(=O)(=O)c2nnc(N)s2)cc1

35.9
28.3
39.1

Please report cytotoxicity at 72 h, 0.13 µM for every entry that follows.
1. Nc1ccc(S(=O)(=O)Nc2nnc(S(=O)(=O)NC(=O)c3ccc([N+](=O)[O-])cc3)s2)cc1
2. Nc1ccc(S(=O)(=O)Nc2nnc(S(=O)(=O)NC(=O)c3ccccc3N)s2)cc1

[32.1, 44]

---

assay: In vitro cytotoxicity by MTT assay, HEK 293; type: cell-based, human; settings: human, HEK 293 cells, 0.045 μM, read-out: % cytotoxicity (100 − % cell survival) of HEK 293 cell line
experimental readout: cytotoxicity at 72 h, 0.045 µM
Please state the number and follow it with the unit.

compound: COc1ccc(C=Nc2nnc(S(=O)(=O)NC(=O)c3ccccc3)s2)cc1
cytotoxicity at 72 h, 0.045 µM: 33.9%
--
compound: CC(=O)Nc1ccc(S(=O)(=O)Nc2nnc(S(=O)(=O)NC(=O)c3cccc([N+](=O)[O-])c3)s2)cc1
cytotoxicity at 72 h, 0.045 µM: 45.4%
--
compound: Nc1nnc(S(=O)(=O)NC(=O)c2cccc([N+](=O)[O-])c2)s1
cytotoxicity at 72 h, 0.045 µM: 28.1%
--
compound: NS(=O)(=O)c1ccc(S(=O)(=O)Nc2cccc3c(Cl)c[nH]c23)cc1 [ISL, indisulam, reference compound]
cytotoxicity at 72 h, 0.045 µM: 48.6%
--
compound: COc1cc(C=Nc2nnc(S(=O)(=O)NC(=O)c3ccccc3)s2)ccc1O
cytotoxicity at 72 h, 0.045 µM: 28.5%

Hello, I would appreciate it if you could give cytotoxicity at 72 h, 0.045 µM for each entry below.
1. Nc1ccc(S(=O)(=O)Nc2nnc(S(=O)(=O)NC(=O)c3cccc([N+](=O)[O-])c3)s2)cc1
2. Nc1nnc(S(=O)(=O)NC(=O)c2ccccc2N)s1
3. Nc1nnc(S(=O)(=O)NC(=O)c2ccc(Cl)cc2)s1
4. CC(=O)Nc1ccc(S(=O)(=O)Nc2nnc(S(=O)(=O)NC(=O)c3ccc(N)cc3)s2)cc1

1. 36%
2. 50.4%
3. 41.2%
4. 32.9%

Dear reader, for each entry below, please note its cytotoxicity at 72 h, 0.045 µM.
1. Nc1ccc(C(=O)NS(=O)(=O)c2nnc(N)s2)cc1
2. Nc1ccc(S(=O)(=O)Nc2nnc(S(=O)(=O)NC(=O)c3ccccc3N)s2)cc1
3. O=C(NS(=O)(=O)c1nnc(N=Cc2ccco2)s1)c1ccccc1
4. CC(=O)Nc1ccc(S(=O)(=O)Nc2nnc(S(=O)(=O)NC(=O)c3ccccc3O)s2)cc1
5. CC(=O)Nc1ccc(S(=O)(=O)Nc2nnc(S(=O)(=O)NC(=O)c3ccccc3N)s2)cc1

1: 38.2%; 2: 40.5%; 3: 33.7%; 4: 35.1%; 5: 37.9%

For each entry beneath this line, provide reported cytotoxicity at 72 h, 0.045 µM.
1. O=C(NS(=O)(=O)c1nnc(N=Cc2ccccc2O)s1)c1ccccc1
2. CC(=O)Nc1ccc(S(=O)(=O)Nc2nnc(S(=O)(=O)NC(=O)c3ccc([N+](=O)[O-])cc3)s2)cc1

["34%", "42.7%"]

For the 2 compounds below, give their cytotoxicity at 72 h, 0.045 µM values.
1. Nc1ccc(S(=O)(=O)Nc2nnc(S(=O)(=O)NC(=O)c3ccc([N+](=O)[O-])cc3)s2)cc1
2. CC(=O)Nc1ccc(S(=O)(=O)Nc2nnc(S(=O)(=O)NC(=O)c3ccccc3)s2)cc1

1. 30.2%
2. 28.2%
